The measurements presented in this section are drawn from the supplement of paper PMC9112550.

- Tested on: Escherichia coli TOP10
- protocol_text: shrunken log2 fold change of peptide-encoding DNA abundance (4.5 h post-induction vs induction); higher = less antimicrobial activity (less host growth inhibition)
- condition_summary: time post-induction: 4.5 h; library: site-saturation at positions 5, 18, 19, 20
Decide by shrunken log2 fold change: equal to or exceeding -0.002 means YES, less means NO.

# count of solved cases: 5
1) RRIRMRPPRLPRPRPRPWWVPRP ... NO
2) RRIRHRPPRLPRPRPRPCRNPRP ... NO
3) RRIRMRPPRLPRPRPRPPMKPRP ... NO
4) RRIRSRPPRLPRPRPRPDIYPRP ... NO
5) RRIRIRPPRLPRPRPRPPTNPRP ... YES

Tell me whether shrunken log2 fold change is at least -0.002 here: "RRIRKRPPRLPRPRPRPIGLPRP"
YES

Tell me whether shrunken log2 fold change is at least -0.002 here: "RRIRFRPPRLPRPRPRPDSYPRP"
NO

Tell me whether shrunken log2 fold change is at least -0.002 here: "RRIRFRPPRLPRPRPRPCQQPRP"
YES

====

- Test system: Escherichia coli TOP10
- protocol_text: shrunken log2 fold change of peptide-encoding DNA abundance (4.5 h post-induction vs induction); higher = less antimicrobial activity (less host growth inhibition)
- condition_summary: time post-induction: 4.5 h; library: site-saturation at positions 5, 18, 19, 20
Hi there, I'd appreciate the recorded shrunken log2 fold change for every entry that follows.
Numbers only.

I would be grateful if you could provide shrunken log2 fold change for each of the following entries.
1. RRIRQRPPRLPRPRPRPIRDPRP
2. RRIRNRPPRLPRPRPRPFELPRP

1. -0.161
2. 0.00621

====

- System: Escherichia coli TOP10
- protocol_text: shrunken log2 fold change of peptide-encoding DNA abundance (4.5 h post-induction vs induction); higher = less antimicrobial activity (less host growth inhibition)
- condition_summary: time post-induction: 4.5 h; library: site-saturation at positions 5, 18, 19, 20
Hi there, I'd appreciate the recorded shrunken log2 fold change for every entry that follows.

Here is how some sequences turned out for shrunken log2 fold change.
1. RRIRGRPPRLPRPRPRPTSCPRP ... 0.401
2. RRIRGRPPRLPRPRPRPQAYPRP ... -0.0978
3. RRIRKRPPRLPRPRPRPCKCPRP ... 0.0183
4. RRIRIRPPRLPRPRPRPFYPPRP ... -0.776
5. RRIRFRPPRLPRPRPRPRSTPRP ... 0.421

I would be grateful if you could provide shrunken log2 fold change for each of the following entries.
1. RRIRIRPPRLPRPRPRPTSYPRP
2. RRIRTRPPRLPRPRPRPGYPPRP
3. RRIRWRPPRLPRPRPRPLMPPRP
4. RRIRWRPPRLPRPRPRPASAPRP
5. RRIRNRPPRLPRPRPRPSKDPRP
6. RRIRLRPPRLPRPRPRPKQEPRP
7. RRIRNRPPRLPRPRPRPMNIPRP

1. -0.261
2. -0.197
3. 0.486
4. 0.298
5. -0.285
6. -0.00888
7. -0.24

I would be grateful if you could provide shrunken log2 fold change for each of the following entries.
1. RRIRLRPPRLPRPRPRPPVHPRP
2. RRIRTRPPRLPRPRPRPAAHPRP
3. RRIRARPPRLPRPRPRPHYGPRP

1. 0.0348
2. 0.199
3. 0.0153

I would be grateful if you could provide shrunken log2 fold change for each of the following entries.
1. RRIRDRPPRLPRPRPRPTEDPRP
2. RRIRDRPPRLPRPRPRPQQEPRP
3. RRIRNRPPRLPRPRPRPQRCPRP
4. RRIRERPPRLPRPRPRPPFDPRP
5. RRIRIRPPRLPRPRPRPMARPRP
6. RRIRKRPPRLPRPRPRPVGDPRP

-0.0699
0.00606
0.0227
-0.0468
-0.153
0.247

====

- System: Escherichia coli TOP10
- protocol_text: shrunken log2 fold change of peptide-encoding DNA abundance (4.5 h post-induction vs induction); higher = less antimicrobial activity (less host growth inhibition)
- condition_summary: time post-induction: 4.5 h; library: site-saturation at positions 5, 18, 19, 20
Decide by shrunken log2 fold change: equal to or exceeding -0.2 means yes, less means no.

1. RRIRFRPPRLPRPRPRPWTFPRP ... no

Tell me whether shrunken log2 fold change is at least -0.2 here: "RRIRERPPRLPRPRPRPYYSPRP"
yes

Tell me whether shrunken log2 fold change is at least -0.2 here: "RRIRVRPPRLPRPRPRPNGLPRP"
yes

Tell me whether shrunken log2 fold change is at least -0.2 here: "RRIRTRPPRLPRPRPRPMSMPRP"
yes

Tell me whether shrunken log2 fold change is at least -0.2 here: "RRIRERPPRLPRPRPRPYLSPRP"
no

Tell me whether shrunken log2 fold change is at least -0.2 here: "RRIRFRPPRLPRPRPRPCYEPRP"
no

====

- Tested on: Escherichia coli TOP10
- protocol_text: shrunken log2 fold change of peptide-encoding DNA abundance (4.5 h post-induction vs induction); higher = less antimicrobial activity (less host growth inhibition)
- condition_summary: time post-induction: 4.5 h; library: site-saturation at positions 5, 18, 19, 20
Decide by shrunken log2 fold change: equal to or exceeding -0.01 means satisfied, less means not satisfied.

1. RRIRRRPPRLPRPRPRPYGTPRP ... not satisfied
2. RRIRDRPPRLPRPRPRPESWPRP ... satisfied
3. RRIRRRPPRLPRPRPRPFPWPRP ... not satisfied
4. RRIRDRPPRLPRPRPRPPSQPRP ... satisfied
5. RRIRKRPPRLPRPRPRPMMLPRP ... not satisfied

Okay, next one:
Tell me whether shrunken log2 fold change is at least -0.01 here: "RRIRGRPPRLPRPRPRPIEFPRP"
satisfied

====

- Tested on: Escherichia coli TOP10
- protocol_text: shrunken log2 fold change of peptide-encoding DNA abundance (4.5 h post-induction vs induction); higher = less antimicrobial activity (less host growth inhibition)
- condition_summary: time post-induction: 4.5 h; library: site-saturation at positions 5, 18, 19, 20
Hi there, I'd appreciate the recorded shrunken log2 fold change for every entry that follows.
Numbers only.

1. RRIRARPPRLPRPRPRPWSFPRP ... -0.00357
2. RRIRWRPPRLPRPRPRPAEDPRP ... 0.711
3. RRIRGRPPRLPRPRPRPGIRPRP ... 0.208
4. RRIRDRPPRLPRPRPRPCHIPRP ... -0.251
5. RRIRQRPPRLPRPRPRPCSPPRP ... 0.0218

Please examine the following record next.
Please provide the recorded shrunken log2 fold change for "RRIRNRPPRLPRPRPRPCPCPRP" , tested on Escherichia coli TOP10.
-0.0945

====

- Test system: Escherichia coli TOP10;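 note: peptides expressed intracellularly from a pBAD plasmid library in pooled LB shake-flask culture, induced with 0.3% L-arabinose, DNA abundance read by NGS, three biological replicates, DESeq2 with apeglm shrinkage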
- protocol_text: shrunken log2 fold change of peptide-encoding DNA abundance (4.5 h post-induction vs induction); higher = less antimicrobial activity (less host growth inhibition)
- condition_summary: time post-induction: 4.5 h; library: site-saturation at positions 5, 18, 19, 20
Hi there, I'd appreciate the recorded shrunken log2 fold change for every entry that follows.
Numbers only.

Here is how some sequences turned out for shrunken log2 fold change.
1. RRIRYRPPRLPRPRPRPTYNPRP ... -1.32
2. RRIRCRPPRLPRPRPRPRLCPRP ... 0.427
3. RRIRRRPPRLPRPRPRPIGMPRP ... -0.0232
4. RRIRGRPPRLPRPRPRPTDWPRP ... 0.8
5. RRIRWRPPRLPRPRPRPTDSPRP ... -0.195
6. RRIRSRPPRLPRPRPRPHYDPRP ... -0.735
7. RRIRGRPPRLPRPRPRPRYQPRP ... 0.615
8. RRIRSRPPRLPRPRPRPMRQPRP ... 0.728

I would be grateful if you could provide shrunken log2 fold change for each of the following entries.
1. RRIRIRPPRLPRPRPRPVKFPRP
2. RRIRKRPPRLPRPRPRPYMTPRP

[-0.0946, -0.0252]

I would be grateful if you could provide shrunken log2 fold change for each of the following entries.
1. RRIRLRPPRLPRPRPRPCPHPRP
2. RRIRSRPPRLPRPRPRPSAGPRP
3. RRIRERPPRLPRPRPRPFSDPRP
4. RRIRMRPPRLPRPRPRPHHSPRP
5. RRIRIRPPRLPRPRPRPQVDPRP
6. RRIRGRPPRLPRPRPRPLNRPRP
7. RRIRNRPPRLPRPRPRPWVMPRP
8. RRIRKRPPRLPRPRPRPCRSPRP

1: -0.0552; 2: 0.191; 3: -0.0836; 4: -0.236; 5: 0.0508; 6: 0.33; 7: -0.00783; 8: -0.0126

I would be grateful if you could provide shrunken log2 fold change for each of the following entries.
1. RRIRERPPRLPRPRPRPPGGPRP
2. RRIRCRPPRLPRPRPRPGENPRP
3. RRIRVRPPRLPRPRPRPEGCPRP
4. RRIRVRPPRLPRPRPRPHGLPRP
5. RRIRNRPPRLPRPRPRPERQPRP
6. RRIRCRPPRLPRPRPRPTRAPRP

1. 0.56
2. 0.0862
3. 0.132
4. 0.0861
5. 0.221
6. 0.632

I would be grateful if you could provide shrunken log2 fold change for each of the following entries.
1. RRIRSRPPRLPRPRPRPEAFPRP
2. RRIRQRPPRLPRPRPRPGYEPRP
3. RRIRSRPPRLPRPRPRPQHMPRP
4. RRIRARPPRLPRPRPRPICQPRP
5. RRIRARPPRLPRPRPRPIWCPRP
6. RRIRDRPPRLPRPRPRPHHEPRP

-0.0131
0.00854
-0.336
0.216
0.00499
0.0131
